Listed here: items and their measured YAP1 (% UTC).
tested on: Yap1 mRNA; assay: Antisense inhibition of human Yap1 in SNU-449 cells by modified oligonucleotides, single dose (Example 5, RTS36584); type: cell-based; conditions: Table 45; Yap1 mRNA as percent of untreated control, SNU-449 cells, single dose
Strand notation (5' to 3'): a small letter for the sugar, then the base; units joined by * are phosphorothioate-linked, units joined directly phosphodiester-linked; [ ] holds rarer units or linkages, { } end groups; capitals alone tell only the bases. k = constrained ethyl (cEt); [5mC] = 5-methylcytosine; d = 2'-deoxy (DNA)
Give the value, in units of % UTC, as a plain number.

Known results for substances:
{"substance": "1198920 (kA*kA*dG*d[5mC]*dA*d[5mC]*dT*dT*dT*dT*dA*k[5mC]*dA*kT*dT*kA; antisense) [Compound 1198920]", "value": 54}
{"substance": "1198943 (kT*k[5mC]*dT*dT*dA*dT*dA*dT*dG*dG*dT*kT*dT*kT*dG*kT; antisense) [Compound 1198943]", "value": 31}
{"substance": "1198967 (kT*kA*dA*dG*dG*dT*dT*dT*d[5mC]*d[5mC]*d[5mC]*kA*dG*kA*dT*kT; antisense) [Compound 1198967]", "value": 65}
{"substance": "1198897 (kA*kT*dG*dG*dA*dA*dA*dT*dT*dG*dT*k[5mC]*dT*k[5mC]*dA*kT; antisense) [Compound 1198897]", "value": 61}
{"substance": "1198961 (kA*kA*dA*dG*dT*dG*dT*dA*dT*dG*dT*k[5mC]*dA*kG*dA*kA; antisense) [Compound 1198961]", "value": 12}
{"substance": "1198933 (kT*kT*dT*dA*dG*dG*dA*dT*dG*d[5mC]*dA*kT*dG*kG*dT*kT; antisense) [Compound 1198933]", "value": 69}
{"substance": "715487 (antisense kA*kT*kT*dA*d[5mC]*dT*dT*d[5mC]*dA*dT*dA*dG*d[5mC]*kT*kT*kA) [Compound 715487]", "value": 28}
{"substance": "1198894 (kG*kA*dA*dA*dT*dT*dG*dT*d[5mC]*dT*d[5mC]*kA*dT*kG*d[5mC]*k[5mC]; antisense) [Compound 1198894]", "value": 57}

The recorded YAP1 (% UTC) for entry 1198970 (kT*kA*dA*dG*dT*dA*dA*dG*dG*dT*dT*kT*d[5mC]*k[5mC]*d[5mC]*kA; antisense) [Compound 1198970] equals 29

YAP1 (% UTC) for 1198923 (kT*kT*dG*dG*dA*dA*dG*dA*dT*d[5mC]*dT*kG*dA*kA*dA*k[5mC]; antisense) [Compound 1198923] is 73

// 1198952 (kT*kA*dA*dT*dA*dT*dT*dG*d[5mC]*dA*kA*kT*d[5mC]*kT*dG*kT; antisense) [Compound 1198952] : YAP1 (% UTC) value = 77

YAP1 (% UTC) reading for 1198917 (k[5mC]*kA*d[5mC]*dT*dT*dT*dT*dA*d[5mC]*dA*dT*kT*dA*kG*dG*kA; antisense) [Compound 1198917] : 21

Input 1198968 (kA*kG*dT*dA*dA*dG*dG*dT*dT*dT*d[5mC]*k[5mC]*d[5mC]*kA*dG*kA; antisense) [Compound 1198968] . Output YAP1 (% UTC): 57

Recorded result, 1095491 (antisense kA*k[5mC]*dT*dG*dA*dG*dG*dT*dA*dT*dA*kA*d[5mC]*kT*dG*kG) [Compound 1095491] , YAP1 (% UTC): 65

Looking up 1198944 (k[5mC]*kT*d[5mC]*dT*dT*dA*dT*dA*dT*dG*dG*kT*dT*kT*dT*kG; antisense) [Compound 1198944] , I found its YAP1 (% UTC) recorded as 34

The reported value for 1198921 (kT*kT*dA*dA*dG*d[5mC]*dA*d[5mC]*dT*dT*dT*kT*dA*k[5mC]*dA*kT; antisense) [Compound 1198921] in terms of YAP1 (% UTC) is 89

YAP1 (% UTC) measured on 1198908 (kT*kA*dT*dA*dA*d[5mC]*dT*dG*dG*dG*d[5mC]*kA*dA*kA*dT*kT; antisense) [Compound 1198908] = 124

Memo: 1198928 (kG*kT*dG*d[5mC]*dT*dT*dT*dG*dG*dA*dA*kG*dA*kT*d[5mC]*kT; antisense) [Compound 1198928] , reported YAP1 (% UTC): 28

Reported YAP1 (% UTC) of 1198916 (kA*k[5mC]*dT*dT*dT*dT*dA*d[5mC]*dA*dT*dT*kA*dG*kG*dA*kA; antisense) [Compound 1198916] : 59

// YAP1 (% UTC) lookup, substance = 1095511 (antisense k[5mC]*kA*d[5mC]*dT*dG*dA*dG*dG*dT*dA*dT*kA*dA*k[5mC]*dT*kG) [Compound 1095511] , result: 46

Measured YAP1 (% UTC), 1198949 (kA*kT*dT*dG*d[5mC]*dA*dA*dT*d[5mC]*dT*dG*kT*d[5mC]*kT*dG*kA; antisense) [Compound 1198949] : 61

Quick note, YAP1 (% UTC) for 1074461 (kG*kA*kA*dA*dT*dT*dG*dT*d[5mC]*dT*d[5mC]*dA*dT*kG*k[5mC]*k[5mC]) [Compound 1074461] landed at 9

Looking up 1095510 (antisense k[5mC]*kT*dG*dA*dG*dG*dT*dA*dT*dA*dA*k[5mC]*dT*kG*dG*kG) [Compound 1095510] , I found its YAP1 (% UTC) recorded as 35

# YAP1 (% UTC) of 1198915 (k[5mC]*kT*dT*dT*dT*dA*d[5mC]*dA*dT*dT*dA*kG*dG*kA*dA*k[5mC]; antisense) [Compound 1198915] = 37

Reported YAP1 (% UTC) for 1198936 (kA*kG*dA*dT*dT*dT*dA*dG*dG*dA*dT*kG*d[5mC]*kA*dT*kG; antisense) [Compound 1198936] was 38
